# assay.explanation: physchem
# experimental.parameters: organic solvent or mixture, thermodynamic from solid, Solubility in Diisopropyl adipate (mg/mL)
Provide the recorded solubility at 4 h for the entries that follow.

These recorded examples may help you get a feel for the data.
Cc1cc(Nc2cc(O[C@@H]3CCOC3)nc(N(C)[C@@H]3C[C@H]4CCC[C@@H](C3)N4CC(=O)N3CCCC3)n2)n[nH]1 = < 5000 µg/mL
COC(=O)N1[C@@H]2CCC[C@H]1C[C@H](N(C)c1nc(Nc3cc(C)[nH]n3)cc(OC3COC3)n1)C2 = 5000 to 10000 µg/mL
COC(=O)N1[C@@H]2CCC[C@H]1C[C@H](N(C)c1nc(Nc3cc(C)[nH]n3)cc(O[C@@H]3CCOC3)n1)C2 = > 10000 µg/mL

QUERY: For the molecule "Cc1cc(Nc2cc(OC3COC3)nc(N(C)[C@@H]3C[C@H]4CCC[C@@H](C3)N4CC(=O)N3CCCC3)n2)n[nH]1" , give its reported solubility at 4 h.
RESULT: < 5000 µg/mL

====

# assay.explanation: physchem
# experimental.parameters: organic solvent or mixture, thermodynamic from solid, Solubility in PEG400 (mg/mL)
measured.endpoint: solubility at 4 h

These recorded examples may help you get a feel for the data.
COC(=O)N1[C@@H]2CCC[C@H]1C[C@H](N(C)c1nc(Nc3cc(C)[nH]n3)cc(O[C@H]3CCOC3)n1)C2 [Compound 27] = < 5000 µg/mL
CCNC(=O)CN1[C@@H]2CCC[C@H]1C[C@H](N(C)c1nc(Nc3cc(C)[nH]n3)cc(OC3COC3)n1)C2 [Compound 37] = < 5000 µg/mL
Cc1cc(Nc2cc(OC3COC3)nc(N(C)[C@@H]3C[C@H]4CCC[C@@H](C3)N4CC(=O)N3CCCC3)n2)n[nH]1 [Compound 38] = < 5000 µg/mL
COC(=O)N1[C@@H]2CCC[C@H]1C[C@H](N(C)c1nc(Nc3cc(C)[nH]n3)cc(O[C@@H]3CCOC3)n1)C2 [Compound 23] = 5000 to 10000 µg/mL
Cc1cc(Nc2cc(O[C@@H]3CCOC3)nc(N(C)[C@@H]3C[C@H]4CCC[C@@H](C3)N4C(=O)OC3CCOCC3)n2)n[nH]1 [Compound 21] = > 10000 µg/mL

From here, focus on the item given below.
QUERY: For the compound Cc1cc(Nc2cc(O[C@H]3CCOC3)nc(N(C)[C@@H]3C[C@H]4CCC[C@@H](C3)N4CC(=O)N3CCCC3)n2)n[nH]1 [Compound 31] , give its reported solubility at 4 h.
RESULT: < 5000 µg/mL

====

Provide the recorded IC50 for the entries that follow.
# System: IL-2 stimulated pSTAT5 in Tall-1 T cells
# assay.explanation: Inhibition of IL-2 Stimulated pSTAT5 in Tall-1 T Cells
# Type: cell-based
# experimental.parameters: Tall-1 human T cell line, IL-2 300 ng/mL, AlphaLisa; read-out: Tall-1 IL2 pSTAT5 (pIC50) (converted)

These recorded examples may help you get a feel for the data.
CCC(=O)N1[C@@H]2CCC[C@H]1C[C@H](N(C)c1nc(Nc3cc(C)[nH]n3)cc(O[C@H]3CCOC3)n1)C2 [Compound 28] = ≤ 10 nM
CCNC(=O)CN1[C@@H]2CCC[C@H]1C[C@H](N(C)c1nc(Nc3cc(C)[nH]n3)cc(OC3COC3)n1)C2 [Compound 37] = ≤ 10 nM
Cc1cc(Nc2cc(O[C@@H]3CCOC3)nc(N(C)[C@@H]3C[C@H]4CCC[C@@H](C3)N4C(=O)CC3CC3)n2)n[nH]1 [Compound 26] = ≤ 10 nM
CCS(=O)(=O)N1[C@@H]2CCC[C@H]1C[C@H](N(C)c1nc(Nc3cc(C)[nH]n3)cc(C3CCOCC3)n1)C2 [Compound 1] = ≤ 10 nM
Cc1cc(Nc2cc(OC3COC3)nc(N(C)[C@@H]3C[C@H]4CCC[C@@H](C3)N4C(=O)CC3CC3)n2)n[nH]1 [Compound 35] = ≤ 10 nM

Record IC50 for all entries; do not skip any.
1. COC(=O)N1[C@@H]2CCC[C@H]1C[C@H](N(C)c1nc(Nc3cc(C)[nH]n3)cc(OC3COC3)n1)C2 [Compound 36]
2. COC(=O)N1[C@@H]2CCC[C@H]1C[C@H](N(C)c1nc(Nc3cc(C)[nH]n3)cc(O[C@H]3CCOC3)n1)C2 [Compound 27]

RESULT:
≤ 10 nM
10 to 31.6 nM

Record IC50 for all entries; do not skip any.
1. Cc1cc(Nc2cc(O[C@@H]3CCOC3)nc(N(C)[C@@H]3C[C@H]4CCC[C@@H](C3)N4CC(=O)N3CCCC3)n2)n[nH]1 [Compound 19]
2. COCCC(=O)N1[C@@H]2CCC[C@H]1C[C@H](N(C)c1nc(Nc3cc(C)[nH]n3)cc(O[C@H]3CCOC3)n1)C2 [Compound 29]
3. CCNC(=O)CN1[C@@H]2CCC[C@H]1C[C@H](N(C)c1nc(Nc3cc(C)[nH]n3)cc(O[C@@H]3CCOC3)n1)C2 [Compound 20]
4. Cc1cc(Nc2cc(O[C@@H]3CCOC3)nc(N(C)[C@@H]3C[C@H]4CCC[C@@H](C3)N4C(=O)OC3CCOCC3)n2)n[nH]1 [Compound 21]
5. Cc1cc(Nc2cc(O[C@H]3CCOC3)nc(N(C)[C@@H]3C[C@H]4CCC[C@@H](C3)N4C(=O)CC3CC3)n2)n[nH]1 [Compound 30]

RESULT:
["≤ 10 nM", "≤ 10 nM", "≤ 10 nM", "10 to 31.6 nM", "≤ 10 nM"]
